// reported TGI for each item listed
Test system: MOLT-4 leukemia
Experiment: NCI tumour cell line growth inhibition, 48 h
PROPERTY NAME: TGI (µM)

molecule="CC(CC(C)(C)[N+](C)(C)C)[N+](C)(C)C (centres undefined)" limit_operator=> value_measured=100
molecule=COC(=O)c1cc2c(cc1Cl)SC(N(N(C)C)S(=O)(=O)c1ccc(Cl)cc1)=NS2(=O)=O limit_operator== value_measured=27.5
molecule="Cc1ccc(NC(=O)CC(=O)N2N=C(c3ccccc3)C(N=Nc3ccc(S(=O)(=O)CCOS(=O)(=O)O)cc3)C2=O)cc1 (centres undefined)" limit_operator=> value_measured=100
molecule=Cc1ccsc1/C=N/Nc1ccccn1 limit_operator== value_measured=73.9
molecule="CC(C)(C)OC(=O)NCCNC(=O)CN(CC(=O)O)C1CCCCC1N(CC(=O)O)CC(=O)O (centres undefined)" limit_operator=> value_measured=100
molecule="C#CC#CC#CC#CC#CC#CC#CC#CCC1OC[C@H](COC(=O)O[C@@H](C(=O)O[C@H]2C[C@@]3(O)[C@@H](OC(=O)c4ccccc4)[C@@H]4[C@]5(OC(C)=O)CO[C@@H]5C[C@H](O)[C@@]4(C)C(=O)[C@H](OC(C)=O)C(=C2C)C3(C)C)[C@@H](NC(=O)c2ccccc2)c2ccccc2)O1 (some centres undefined)" limit_operator=> value_measured=33.3
molecule=C1C[OH+]CC[OH+]CC[OH+]CC[OH+]CC[OH+]CC[OH+]1.[Cl-].[Ta+5] limit_operator=> value_measured=100
molecule=C=C1C(=O)O[C@H]2[C@H]1CC/C(COC(=O)C(=O)c1cn(C)c3ccc(OC)cc13)=C\CC[C@@]1(C)O[C@@H]21 limit_operator== value_measured=16
molecule=CCCN(CCC)c1c([N+](=O)[O-])cc(C(=O)N(C)C)cc1[N+](=O)[O-] limit_operator=> value_measured=100
molecule=COc1ccc(Nc2c[nH]c(=O)[nH]c2=O)cc1 limit_operator=> value_measured=100
molecule=COc1cc(C(CC(OC)OC)=C(C#N)C#N)cc(OC)c1OC limit_operator== value_measured=33.9
molecule=CN(C)CCCC(=O)Nc1ccc(Cn2nnc3c2C(=O)c2nnn(Cc4ccc(NC(=O)CCCN(C)C)cc4)c2C3=O)cc1 limit_operator== value_measured=5.2
molecule="CC(C)(C)c1cc(C2NC(=O)NC2=O)cc(C(C)(C)C)c1O (centres undefined)" limit_operator=> value_measured=100
molecule="COc1cc(-c2coc3c(OC)c(OC4OC(COC5OC(C)C(O)C(O)C5O)C(O)C(O)C4O)c(OC)c(O)c3c2=O)cc(C)c1O (centres undefined)" limit_operator== value_measured=19.4
molecule=CC(C)[C@@H](CS(=O)(=O)C(C)C)N1C(=O)[C@@](C)(CC(=O)O)C[C@H](c2cccc(Cl)c2)[C@H]1c1ccc(Cl)cc1 limit_operator== value_measured=11.1
molecule=O=c1cc2cc(O)[nH]c(=O)c2c(O)[nH]1 limit_operator=> value_measured=100
molecule=COc1cccc(/C=N/n2c(Cc3ccc(Cl)cc3)n[nH]c2=O)c1 limit_operator=> value_measured=100
molecule="COc1ccc(CCC2NCCc3cc(OC)c(OC)cc32)cc1 (centres undefined)" limit_operator=> value_measured=100
molecule=COC1=C(OC)C(=O)C(Cc2c(Cl)nc3n2CCS3)=C(C)C1=O limit_operator== value_measured=3.28
molecule="C=C1CO[C@@H]2C[C@@H]1CCC1(C)OC1CC/C(C)=C/CC[C@@]2(C)O (some centres undefined)" limit_operator== value_measured=39.1
molecule="Cc1ccc(N(C(=O)CC(=O)N2N=C(c3ccccc3)C(N=Nc3ccc([N+](=O)[O-])cc3)C2=O)C(=O)c2ccc(Cl)cc2)cc1 (centres undefined)" limit_operator=> value_measured=100
molecule="O=[N+]([O-])c1ccc2c(c1)S(=O)c1ccccc1-2 (centres undefined)" limit_operator=> value_measured=100
molecule="CCOC(=O)CCC(NC(=O)c1ccc(NCc2ccc3nc(-c4ccccc4)c(Cl)nc3c2)c2ccccc12)C(=O)OCC (centres undefined)" limit_operator== value_measured=27.9
molecule=CCCCC#Cc1cccc(=O)o1 limit_operator=> value_measured=100
molecule="COC(=O)[C@H](Cc1ccccc1)NC(=O)[C@@H](OC)[C@@H]1Cc2cc3cc(OC4CC(OC5CC(O)C(O)C(C)O5)C(O)C(C)O4)c(C)c(O)c3c(O)c2C(=O)[C@H]1OC1CC(OC2CC(OC3CC(C)(O)C(O)C(C)O3)C(O)C(C)O2)C(O)C(C)O1 (some centres undefined)" limit_operator== value_measured=0.161
molecule=CC(C)C[C@H](NC(=O)[C@H](CCc1ccccc1)NC(=O)c1ccc2ccccc2n1)B(O)O limit_operator== value_measured=4.76
molecule=Oc1ccc(SCc2ccc(NCc3ccccc3)cc2)cc1 limit_operator== value_measured=39.7
molecule="CC12CCC(C1)C(C)(C)C2OC(=O)c1ccccc1C(=O)O (centres undefined)" limit_operator=> value_measured=100
molecule=COc1ccc(-c2c(C#N)c(N)nc3c2CCCc2ccc(F)cc2-3)cc1OC limit_operator=> value_measured=100
molecule="O=C(O)C(CO)NC(=O)C1C(C(=O)O)C(c2ccccc2[N+](=O)[O-])C=C(c2ccco2)N1c1ccncc1 (centres undefined)" limit_operator=> value_measured=22.5
molecule=CC1(C)CC[C@]2(C(=O)O)CC[C@]3(C)[C@H](CC[C@@H]4[C@@]5(C)CCC(=O)C(C)(C)[C@@H]5CC[C@]43C)[C@H]2[C@H]1OC(=O)C(F)(F)F limit_operator== value_measured=22.5
molecule=CCOC(=O)/C=C(/C(=O)OCC)n1ccc(=O)[nH]c1=O limit_operator== value_measured=6.12
molecule=C=C(COC(=O)C(C)C)[C@H]1Oc2ccc(C(C)=O)cc2[C@@H]1OC(=O)C(C)C limit_operator=> value_measured=100
molecule=COc1c(Cl)c(Cl)c(OC)c2c1C(=O)C=CC2=O limit_operator== value_measured=46.7
